Test system: Enterococcus faecalis
procedure.text: In vitro minimum inhibitory concentration against Enterococcus faecalis [(VRE) ATCC 346-VRE and 5B-VRE]
Assay type: functional
property.label: MIC (µg/mL)
// units = µg/mL; emit number, no label

smiles.representation: CO/C(S)=N/C[C@H]1CN(c2ccc(-n3nnc4ccccc43)c(F)c2)C(=O)O1
units.of.measure: µg/mL
number: 1

What does the record list as MIC for COC(=O)c1ccc2c(c1)nnn2-c1ccc(N2C[C@H](C/N=C(\S)OC)OC2=O)cc1F ?
0.25

What does the record list as MIC for N=C(S)NC[C@H]1CN(c2ccc(-n3nnc4ccccc43)c(F)c2)C(=O)O1 ?
0.25

What does the record list as MIC for O=C1O[C@@H](CN/C(S)=N/CCO)CN1c1ccc(-n2nnc3ccccc32)c(F)c1 ?
1

----------
In this section, each of the compounds is paired with its reported MIC.
System: Staphylococcus aureus
procedure.text: In vitro minimum inhibitory concentration against Staphylococcus aureus (ATCC 25923 and 29213)
Assay type: functional
// units = µg/mL; emit number, no label

Would you please look over these solved cases?
smiles.representation: N=C(S)NC[C@H]1CN(c2ccc(-n3nnc4ccccc43)c(F)c2)C(=O)O1
units.of.measure: µg/mL
MIC: 0.25
//
smiles.representation: COC(=O)c1ccc2c(c1)nnn2-c1ccc(N2C[C@H](C/N=C(/N)S)OC2=O)cc1F
units.of.measure: µg/mL
MIC: 0.25
//
smiles.representation: COC(=O)c1ccc2c(c1)nnn2-c1ccc(N2C[C@H](C/N=C(\S)OC)OC2=O)cc1F
units.of.measure: µg/mL
MIC: 0.25

Next compound, please.
Give recorded MIC with Staphylococcus aureus for the following compound: CO/C(S)=N/C[C@H]1CN(c2ccc(-n3nnc4ccccc43)c(F)c2)C(=O)O1
1

----------
Tested on: Enterococcus faecium
procedure.text: In vitro minimum inhibitory concentration against Enterococcus faecium (6A-VRE)
Format: functional
property.label: MIC (µg/mL)
// units = µg/mL; emit number, no label

molecule: O=C1O[C@@H](CN/C(S)=N/CCO)CN1c1ccc(-n2nnc3ccccc32)c(F)c1
measured.on: Enterococcus faecium
units.of.measure: µg/mL
number: 1

What does the record list as MIC for CC(=O)NC[C@H]1CN(c2ccc(N3CCOCC3)c(F)c2)C(=O)O1 [LINEZOLID] ?
2

What does the record list as MIC for COC(=O)c1ccc2c(c1)nnn2-c1ccc(N2C[C@H](C/N=C(/N)S)OC2=O)cc1F ?
0.25

What does the record list as MIC for N=C(S)NC[C@H]1CN(c2ccc(-n3nnc4ccccc43)c(F)c2)C(=O)O1 ?
16

What does the record list as MIC for CO/C(S)=N/C[C@H]1CN(c2ccc(-n3nnc4ccccc43)c(F)c2)C(=O)O1 ?
1

What does the record list as MIC for COC(=O)c1ccc2c(c1)nnn2-c1ccc(N2C[C@H](C/N=C(\S)OC)OC2=O)cc1F ?
0.25

----------
Tested on: Enterococcus faecalis
procedure.text: In vitro minimum inhibitory concentration against Enterococcus faecalis [(VRE) ATCC 346-VRE and 5B-VRE]
Assay type: functional
property.label: MIC

Would you please look over these solved cases?
smiles.representation: O=C1O[C@@H](C/N=C(\S)OCCO)CN1c1ccc(-n2nnc3ccccc32)c(F)c1
MIC: > 16 µg/mL

smiles.representation: CCN(CC)CC/N=C(\S)NC[C@H]1CN(c2ccc(-n3nnc4ccccc43)c(F)c2)C(=O)O1
MIC: > 16 µg/mL

Next compound, please.
What does the record list as MIC for CN(C)CCO/C(S)=N/C[C@H]1CN(c2ccc(-n3nnc4ccccc43)c(F)c2)C(=O)O1 ?
> 16 µg/mL

----------
System: Staphylococcus aureus
procedure.text: In vitro minimum inhibitory concentration against Staphylococcus aureus (ATCC 25923 and 29213)
Type: functional
property.label: MIC

smiles.representation: CN(C)CCO/C(S)=N/C[C@H]1CN(c2ccc(-n3nnc4ccccc43)c(F)c2)C(=O)O1
MIC: > 16 µg/mL

What does the record list as MIC for CCN(CC)CC/N=C(\S)NC[C@H]1CN(c2ccc(-n3nnc4ccccc43)c(F)c2)C(=O)O1 ?
> 16 µg/mL

What does the record list as MIC for O=C1O[C@@H](C/N=C(\S)OCCO)CN1c1ccc(-n2nnc3ccccc32)c(F)c1 ?
> 16 µg/mL

----------
System: Enterococcus faecium
procedure.text: In vitro minimum inhibitory concentration against Enterococcus faecium (6A-VRE)
Assay type: functional
property.label: MIC

Would you please look over these solved cases?
smiles.representation: CCN(CC)CC/N=C(\S)NC[C@H]1CN(c2ccc(-n3nnc4ccccc43)c(F)c2)C(=O)O1
result: > 16 mg/L
--
smiles.representation: CN(C)CCO/C(S)=N/C[C@H]1CN(c2ccc(-n3nnc4ccccc43)c(F)c2)C(=O)O1
result: > 16 mg/L

Next compound, please.
What does the record list as MIC for O=C1O[C@@H](C/N=C(\S)OCCO)CN1c1ccc(-n2nnc3ccccc32)c(F)c1 ?
> 16 mg/L

Attribution: ChEMBL document CHEMBL1139614
